# TARGET OF ASSAY: UniProtKB Q96RI1
# Sequence (Q96RI1 262-486 limits assumed): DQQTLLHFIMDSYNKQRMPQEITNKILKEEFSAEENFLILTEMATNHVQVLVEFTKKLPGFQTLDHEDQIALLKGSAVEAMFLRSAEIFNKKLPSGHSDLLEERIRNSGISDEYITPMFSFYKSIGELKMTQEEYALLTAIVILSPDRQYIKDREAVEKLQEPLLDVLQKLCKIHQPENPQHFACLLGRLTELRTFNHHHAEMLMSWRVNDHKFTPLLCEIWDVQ
# COND: HepG2 HG19 cells, 24 h; read-out: EC50 by Factorial NR, FXR
RECORDED METRIC: EC50 (µM)

| CHEMICAL STRUCTURE | RECORDED METRIC | REPORTED RESULT |
| --- | --- | --- |
| COC(=O)/C=C/c1cccc(N(Cc2ccc(-c3ccc(N(C)C)cc3)cc2)C(=O)C2CCCCC2)c1 | EC50 | 0.53 |
